Readings of λex (excitation wavelength) for the listed compounds
test: Excitation and fluorescence wavelengths by fluorescence spectrometer FL4500; type: physicochemical; conditions: values in a chloroform solution (Examples 95 to 106); in nm (unit assumed)

Given Nc1c(OCCCOc2ccccc2)cc(O)c2c1C(=O)c1ccccc1C2=O [Compound 112] , respond with its λex (excitation wavelength). 513

Kindly indicate its recorded λex (excitation wavelength). Item: CCOc1ccc(Nc2ccc3c4c(cc(=O)n3C)-c3ccccc3C(=O)c24)cc1 [Compound 117] 538

State its λex (excitation wavelength): Cn1c(=O)cc2c3c(c(Nc4ccccc4)ccc31)C(=O)c1ccccc1-2 [Compound 110] 538

Tell me measured λex (excitation wavelength) for Nc1c(OCCOC(=O)Oc2ccccc2)cc(O)c2c1C(=O)c1ccccc1C2=O [Compound 114] please. 513

* * *

λex (excitation wavelength) values by entry
experiment: Excitation and fluorescence wavelengths by fluorescence spectrometer FL4500; assay type: physicochemical; conditions: aqueous solution: 10 mg/mL DMSO solution diluted to 1/500 with purified water (Examples 1 to 94); in nm (unit assumed)
Hey, just send me the number, nothing else.

>  <COMPOUND>
CCCCCCCCN1C(=O)S/C(=c2/s/c(=C/c3ccc4c(c3)C3CCCC3N4c3ccc(C=C(c4ccccc4)c4ccccc4)cc3)c(=O)n2CC(=O)OCC)C1=O (stereo not drawn)

>  <λex (excitation wavelength)>
590

$$$$
>  <COMPOUND>
O=C(O)CN1C(=O)/C(=C\c2ccc3c(c2)[C@@H]2CCC[C@@H]2N3c2ccccc2)SC1=S

>  <λex (excitation wavelength)>
531

$$$$
>  <COMPOUND>
O=C(O)CN1C(=O)/C(=C\c2cc(Br)c3c(c2)C2CCCC2N3Cc2ccccc2)SC1=S (stereo not drawn)

>  <λex (excitation wavelength)>
486

$$$$
>  <COMPOUND>
CCN1C(=S)S/C(=c2/s/c(=C/c3ccc4c(c3)C3CCCC3N4c3ccc(C=C(c4ccccc4)c4ccccc4)cc3)c(=O)n2CC(=O)O)C1=S (stereo not drawn)

>  <λex (excitation wavelength)>
567

$$$$
>  <COMPOUND>
O=C(O)CC[n+]1c(/C=C/c2ccc3c(c2)C2CCCC2N3c2ccc(C=C(c3ccccc3)c3ccccc3)cc2)sc2ccccc21.[I-] (stereo not drawn)

>  <λex (excitation wavelength)>
598

$$$$

Annotate the compound CCC(/C=C1\Sc2ccccc2N1CC)=C\c1sc2ccccc2[n+]1CC.[I-] with its measured λex (excitation wavelength). 555

Please look at this compound and report its λex (excitation wavelength): Cc1cc(C)cc(Nc2ccc3c4c(cc(=O)n3C)-c3ccccc3C(=O)c24)c1 540

Recall and state the measured λex (excitation wavelength) for CCN1/C(=C/C=C/c2sc3ccccc3[n+]2CC)Sc2ccccc21.[I-] . 485

* * *

experiment: Excitation and fluorescence wavelengths by fluorescence spectrometer FL4500; format: physicochemical; details: values in a chloroform solution (Examples 95 to 106); in nm (unit assumed)
Entries and their measured λex (excitation wavelength) follow.

Respond only with λex (excitation wavelength) recorded for COC(=O)CCc1ccc(Oc2cc(O)c3c(c2N)C(=O)c2ccccc2C3=O)c(C)c1 [Compound 113] 514

Provide measured λex (excitation wavelength) value, entry: Cc1ccc(Nc2ccc3c4c(cc(=O)n3C)-c3ccccc3C(=O)c24)c(C)c1 [Compound 120] 537

Let me know recorded λex (excitation wavelength) for Cc1ccc(C)c(Nc2ccc3c4c(cc(=O)n3C)-c3ccccc3C(=O)c24)c1 [Compound 121] , thanks. 537

Please give the documented λex (excitation wavelength) of Nc1c(Br)cc(O)c2c1C(=O)c1ccccc1C2=O [Compound 111] 527

* * *

tested on: intraocular tissue (retinal tissue incl. photoreceptor cell layer, vitreous body) of Zebrafish 7-day-old embryo; assay: Staining of intraocular tissue of Zebrafish fry by exposure to staining liquid, ocular tissue section observed by confocal microscope; type: in vivo; settings: Zebrafish 7 dpf fry, 1 μg/mL, 1 hour exposure, fixed ocular section
ENDPOINT_LABEL: Staining ability

>  <COMPOUND>
CCN1C=C/C(=C\C=C\c2cc[n+](CC)c3ccccc23)c2ccccc21.[I-]

>  <RESULT_VALUE>
++

$$$$
>  <COMPOUND>
CCN1C(=O)/C(=c2\s/c(=C/c3ccc4c(c3)[C@@H]3CCC[C@@H]3N4c3ccc(OC)cc3)c(=O)n2CC(=O)O)SC1=S

>  <RESULT_VALUE>
++

$$$$
>  <COMPOUND>
CCN1C(=O)/C(=c2\s/c(=C/c3ccc4c(c3)C3CCCC3N4CC)c(=O)n2CC)SC1=S (stereo not drawn)

>  <RESULT_VALUE>
++

$$$$
>  <COMPOUND>
COc1ccc(N2c3ccc(/C=C/C4=[N+](C)c5ccccc5C4(C)C)cc3C3CCCC32)cc1.[Br-] (stereo not drawn)

>  <RESULT_VALUE>
++

$$$$
>  <COMPOUND>
COc1ccc(N2c3ccc(/C=C4/SC(=S)N(CCC(=O)O)C4=O)cc3C3CCCC32)cc1 (stereo not drawn)

>  <RESULT_VALUE>
++

$$$$
>  <COMPOUND>
O=C(O)CC[n+]1c(/C=C/c2ccc3c(c2)C2CCCC2N3c2ccc(C=C(c3ccccc3)c3ccccc3)cc2)sc2ccccc21.[I-] (stereo not drawn)

>  <RESULT_VALUE>
++

$$$$

Fill in Staining ability for record Cn1c(=O)cc2c3c(c(Nc4ccccc4)ccc31)C(=O)c1ccccc1-2 ∘

* * *

experiment: Excitation and fluorescence wavelengths by fluorescence spectrometer FL4500; format: physicochemical; settings: aqueous solution: 10 mg/mL DMSO solution diluted to 1/500 with purified water (Examples 1 to 94); in nm (unit assumed)
ENDPOINT_LABEL: λex (excitation wavelength)

Look over these answered cases.
>  <COMPOUND>
CCN(CC)c1ccc2cc3c(oc2c1)c(C#N)c(=N)n1c2ccccc2nc31 [Compound 5]

>  <λex (excitation wavelength)>
556

$$$$
>  <COMPOUND>
CCN1/C(=C\C=C\C2=[N+](CC)c3ccccc3C23CCCCC3)C2(CCCCC2)c2ccccc21.[I-] [Compound 15]

>  <λex (excitation wavelength)>
496

$$$$
>  <COMPOUND>
O=C(O)CN1C(=O)/C(=C\c2cc(Br)c3c(c2)[C@@H]2CCC[C@@H]2N3c2ccc(Br)cc2)SC1=S [Compound 38]

>  <λex (excitation wavelength)>
482

$$$$
>  <COMPOUND>
O=C1/C(=C/c2ccc3c(c2)C2CCCC2N3c2ccccc2)Oc2ccc(I)cc21 (stereo not shown) [Compound 107]

>  <λex (excitation wavelength)>
380

$$$$
>  <COMPOUND>
O=C(O)CCN1C(=O)/C(=C\c2ccc3c(c2)C2CCCC2N3Cc2ccccc2)SC1=S (stereo not shown) [Compound 47]

>  <λex (excitation wavelength)>
522

$$$$
>  <COMPOUND>
COc1ccc(N2c3ccc(/C=C/c4sc5c6ccccc6ccc5[n+]4CCC(=O)O)cc3C3CCCC32)cc1.[I-] (stereo not shown) [Compound 83]

>  <λex (excitation wavelength)>
605

$$$$

Now turn to the next compound.
Given COc1ccc2cc(N3c4ccc(/C=C5\SC(=S)N(CC(=O)O)C5=O)cc4[C@@H]4CCC[C@@H]43)ccc2c1 [Compound 36] , respond with its λex (excitation wavelength). 566

* * *

// values below are reported λem (fluorescence wavelength)
test: Excitation and fluorescence wavelengths by fluorescence spectrometer FL4500; type: physicochemical; conditions: aqueous solution: 10 mg/mL DMSO solution diluted to 1/500 with purified water (Examples 1 to 94); in nm (unit assumed)
No unit in the answer, only the number.

Solved entries:
>  <MOLECULE>
COc1ccc(N2c3ccc(/C=C4/SC(=S)N(CCC(=O)O)C4=O)cc3C3CCCC32)cc1 (stereo not shown)

>  <λem (fluorescence wavelength)>
651

$$$$
>  <MOLECULE>
COc1ccc2cc(N3c4ccc(/C=C5\SC(=S)N(CC(=O)O)C5=O)cc4[C@@H]4CCC[C@@H]43)ccc2c1

>  <λem (fluorescence wavelength)>
661

$$$$
>  <MOLECULE>
COc1ccc2cc(N3c4ccc(/C=C/c5sc6ccccc6[n+]5CC(=O)O)cc4C4CCCC43)ccc2c1.[Br-] (stereo not shown)

>  <λem (fluorescence wavelength)>
516

$$$$
>  <MOLECULE>
CCN1C(=O)/C(=c2/s/c(=C/c3ccc4c(c3)C3CCCC3N4c3ccc(C=C(c4ccccc4)c4ccccc4)cc3)c(=O)n2CC(=O)O)SC1=S (stereo not shown)

>  <λem (fluorescence wavelength)>
673

$$$$
>  <MOLECULE>
CCN1C(=O)/C(=c2\s/c(=C/c3ccc4c(c3)[C@@H]3CCC[C@@H]3N4c3ccc(OC)cc3)c(=O)n2CC(=O)O)SC1=S

>  <λem (fluorescence wavelength)>
679

$$$$

Provide λem (fluorescence wavelength) value for the following molecule: CCCCNc1ccc2c3c(cccc13)C(=O)N(CCCC)C2=O 551

Note λem (fluorescence wavelength) for the molecule shown: CCn1c(=C2SC(=S)N(CC(=O)O)C2=O)sc(=Cc2ccc3c(c2)C2CCCC2N3c2ccccc2)c1=O (stereo not shown) 700
